These data points were gathered from patent US20260125451A1.

Entries and their measured Emax follow.
- system: T1, APRIL (Acro Biosystems, Cat: APL-H52D1) (UniProt O75888 115-250, limits assumed)
- T1 construct: also called ARPIL; A proliferation-inducing ligand
- T1 sequence (looked up): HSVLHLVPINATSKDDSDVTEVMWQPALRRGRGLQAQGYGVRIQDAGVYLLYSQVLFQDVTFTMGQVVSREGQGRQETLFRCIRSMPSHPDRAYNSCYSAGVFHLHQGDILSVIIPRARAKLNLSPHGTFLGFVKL
- assay-comment: ELISA, APRIL coated, anti-human Fc-HRP, OD450
The reply should be a number in nM, with the unit left off.

B575701 (Fc fusion, TACI-BCMA fusion protein; also called TACI-d2-BCMA-ECD-Fc) LSCRKEQGKFYDHLLRDCISCASICGQHPKQCAYFCENKLRSPGMLQMAGQCSQNEYFDSLLHACIPCQLRCSSNTPPLTCQRYCNASVTNSVKGTNADKTHTCPPCPAPEAEGAPSVFLFPPKPKDTLMISRTPEVTCVVVDVSHEDPEVKFNWYVDGVEVHNAKTKPREEQYNSTYRVVSVLTVLHQDWLNGKEYKCKVSNKALPSSIEKTISKAKGQPREPQVYTLPPSRDELTKNQVSLTCLVKGFYPSDIAVEWESNGQPENNYKTTPPVLDSDGSFFLYSKLTVDKSRWQQGNVFSCSVMHEALHNHYTQKSLSLSPGK; 2.69

Problem: Using the record for B575702 (Fc fusion, TACI-BCMA fusion protein; also called BCMA-ECD-TACI-d2-Fc) MLQMAGQCSQNEYFDSLLHACIPCQLRCSSNTPPLTCQRYCNASVTNSVKGTNALSCRKEQGKFYDHLLRDCISCASICGQHPKQCAYFCENKLRSPGDKTHTCPPCPAPEAEGAPSVFLFPPKPKDTLMISRTPEVTCVVVDVSHEDPEVKFNWYVDGVEVHNAKTKPREEQYNSTYRVVSVLTVLHQDWLNGKEYKCKVSNKALPSSIEKTISKAKGQPREPQVYTLPPSRDELTKNQVSLTCLVKGFYPSDIAVEWESNGQPENNYKTTPPVLDSDGSFFLYSKLTVDKSRWQQGNVFSCSVMHEALHNHYTQKSLSLSPGK , report its Emax.
Solution: 2.64
